Target: Glutamate NMDA receptor
Assay: Inhibition of receptor binding affinity in rat brain synaptosomal membrane was determined by [3H]-CGP- 39653 as radioligand
Assay type: cell membranes
value_type: IC50 (nM)
Entry rule: numbers only, all in nM.

Known results for compounds:
- N[C@H](Cc1cc(CP(=O)(O)O)cc(-c2ccc3ccccc3c2)c1)C(=O)O: 590
- N[C@H](Cc1cc(CP(=O)(O)O)cc(-c2ccccc2)c1)C(=O)O: 5210
- N[C@H](Cc1cc(CP(=O)(O)O)cc(-c2cccc3ccccc23)c1)C(=O)O: 250
- N[C@@H](Cc1cc(-c2ccccc2)cc(CP(=O)(O)O)c1[N+](=O)[O-])C(=O)O: 1080
- N[C@@H](Cc1cc(CP(=O)(O)O)cc(-c2cccc3ccccc23)c1)C(=O)O: 6
- N[C@@H](Cc1cc(CP(=O)(O)O)cc(-c2ccccc2)c1)C(=O)O: 88

Let's switch to this compound now.
Enter recorded IC50 with Glutamate NMDA receptor for N[C@@H](Cc1cc(CP(=O)(O)O)cc(-c2ccc3ccccc3c2)c1)C(=O)O here.
12
